assay: Inhibition of sweet almond beta-glucosidase after 10 mins using 4-nitrophenylbeta-D-glucopyranoside as a substrate by Lineweaver-Burk and double reciprocal analysis; design: species or system Prunus dulcis
Measurement name: pKi
Units for pKi: none; it is -log10 of a concentration expressed in mol/L.

| Input smiles | pKi |
| --- | --- |
| OC[C@@H]1[C@@H](O)[C@H](O)[C@@H](O)c2nc(CCc3ccc(C4CCCCC4)cc3)cn21 | 7.25 |
| OC[C@@H]1[C@@H](O)[C@H](O)[C@@H](O)c2nc(CCc3ccc(F)cc3)cn21 | 8.49 |
| OC[C@@H]1[C@@H](O)[C@H](O)[C@@H](O)c2nccn21 | 7.00 |

Task: Specify measured pKi for OC[C@@H]1[C@@H](O)[C@H](O)[C@@H](O)c2nc(CCc3ccc(-c4ccccc4)cc3)cn21 .
Output: 7.61

Task: Specify measured pKi for Cc1ccc(CCc2cn3c(n2)[C@H](O)[C@@H](O)[C@H](O)[C@H]3CO)cc1 .
Output: 9.24

Task: Specify measured pKi for CCCCCCCCc1cn2c(n1)[C@H](O)[C@@H](O)[C@H](O)[C@H]2CO .
Output: 7.97

Where do the numbers come from? From ChEMBL document CHEMBL1765013.
